assay.endpoint: melting point

Example cases with answers are listed next.
{"structure.smiles.string": "O=C(c1cc(-c2ccccc2)c2c(n1)OCCN(Cc1cc(C(F)(F)F)cc(C(F)(F)F)c1)C2=O)N1CCCCC1", "result": "218 to 220 °C"}
{"structure.smiles.string": "CN(C)C(=O)c1cc(-c2ccccc2)c2c(n1)OCCN(Cc1cc(C(F)(F)F)cc(C(F)(F)F)c1)C2=O", "result": "235 to 236 °C"}
{"structure.smiles.string": "Cc1ccc(-c2ccnc3c2C(=O)N(Cc2cc(C(F)(F)F)cc(C(F)(F)F)c2)CCO3)cc1", "result": "212 to 213 °C"}
{"structure.smiles.string": "Cc1cnc2c(c1-c1ccccc1)C(=O)N(Cc1cc(C(F)(F)F)cc(C(F)(F)F)c1)CCCN(C)C2=O", "result": "247 to 249 °C"}
{"structure.smiles.string": "COCc1cc(-c2ccccc2)c2c(n1)OCCN(Cc1cc(C(F)(F)F)cc(C(F)(F)F)c1)C2=O", "result": "139 to 140 °C"}
{"structure.smiles.string": "Cc1cc(-c2ccccc2)c2c(n1)OCCN(Cc1cc(C(F)(F)F)cc(C(F)(F)F)c1)C2=O", "result": "151 to 153 °C"}

Below: the item to evaluate.
Suppose we examine the molecule CN(C)Cc1cc(-c2ccccc2)c2c(n1)OCCN(Cc1cc(C(F)(F)F)cc(C(F)(F)F)c1)C2=O ; what melting point value has been reported?
186 to 188 °C
